# test_target: Matrix metalloproteinase-9 (Homo sapiens)
# Sequence (P14780 whole entry): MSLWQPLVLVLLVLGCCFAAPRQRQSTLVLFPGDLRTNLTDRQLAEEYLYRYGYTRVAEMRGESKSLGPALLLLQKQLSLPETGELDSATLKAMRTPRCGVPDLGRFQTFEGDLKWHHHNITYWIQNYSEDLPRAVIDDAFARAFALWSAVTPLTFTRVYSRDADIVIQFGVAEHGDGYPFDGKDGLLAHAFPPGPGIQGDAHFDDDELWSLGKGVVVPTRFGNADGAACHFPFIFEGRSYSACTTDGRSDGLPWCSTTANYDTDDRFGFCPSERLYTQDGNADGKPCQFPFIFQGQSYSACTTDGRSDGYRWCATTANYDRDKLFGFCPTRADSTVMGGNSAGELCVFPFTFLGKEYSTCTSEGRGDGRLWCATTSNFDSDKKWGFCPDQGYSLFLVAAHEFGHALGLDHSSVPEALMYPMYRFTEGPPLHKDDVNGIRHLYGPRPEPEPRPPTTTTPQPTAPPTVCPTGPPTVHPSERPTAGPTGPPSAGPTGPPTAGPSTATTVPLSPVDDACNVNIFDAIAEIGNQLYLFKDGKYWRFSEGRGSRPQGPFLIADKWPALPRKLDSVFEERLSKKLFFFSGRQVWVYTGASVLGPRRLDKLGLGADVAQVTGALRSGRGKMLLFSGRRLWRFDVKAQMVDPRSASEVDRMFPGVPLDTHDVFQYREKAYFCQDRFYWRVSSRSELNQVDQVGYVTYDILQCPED
# experiment_notes: Inhibition of MMP-9 (matrix metalloprotease-9, gelatinase B)
readout_label: pKi
The read-out pKi is expressed as -log10 of concentration in moles per litre.

In [3]: df
Out[3]:
                               entry_smiles  readout_label  result
0  CNC(=O)[C@@H]1CCCCN(S(=O)(=O)c2cn(C)cn2)CCC[C@H](C(=O)NO)[C@@H](CC(C)C)C(=O)N1            pKi    8.57

Note to self: pKi recorded for CNC(=O)[C@@H]1CCCCNCCC[C@H](C(=O)NO)[C@@H](CC(C)C)C(=O)N1 was 7.89

###

Lab note: Ki readings collected with Interstitial collagenase (Homo sapiens) for the following compounds.
Sequence (P03956 whole entry): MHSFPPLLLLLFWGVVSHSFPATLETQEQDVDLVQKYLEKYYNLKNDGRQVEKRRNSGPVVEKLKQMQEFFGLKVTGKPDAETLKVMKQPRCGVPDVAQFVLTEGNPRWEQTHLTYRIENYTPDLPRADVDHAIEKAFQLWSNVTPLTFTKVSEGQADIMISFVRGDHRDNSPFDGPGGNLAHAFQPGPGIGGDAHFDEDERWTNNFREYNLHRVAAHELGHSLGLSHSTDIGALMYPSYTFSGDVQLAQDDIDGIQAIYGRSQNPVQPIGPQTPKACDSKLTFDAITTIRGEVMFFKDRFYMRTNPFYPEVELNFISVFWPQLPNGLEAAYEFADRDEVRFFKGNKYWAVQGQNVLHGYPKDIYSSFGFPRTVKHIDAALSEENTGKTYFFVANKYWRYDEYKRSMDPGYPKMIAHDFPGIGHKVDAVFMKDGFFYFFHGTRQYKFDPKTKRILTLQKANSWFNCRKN

Solved cases below.
                               entry_smiles                              test_target  readout_label  result
0  CNC(=O)[C@@H]1CCCCN(S(=O)(=O)c2cn(C)cn2)CCC[C@H](C(=O)NO)[C@@H](CC(C)C)C(=O)N1  Interstitial collagenase (Homo sapiens)             Ki  < 1 nM
1  CNC(=O)[C@@H]1CCCCN(S(=O)(=O)C(F)(F)F)CCC[C@H](C(=O)NO)[C@@H](CC(C)C)C(=O)N1  Interstitial collagenase (Homo sapiens)             Ki    4 nM
2  CNC(=O)[C@@H]1CCCCN(C(=O)OC(C)(C)C)CCC[C@H](C(=O)NO)[C@@H](CC(C)C)C(=O)N1  Interstitial collagenase (Homo sapiens)             Ki  < 1 nM

// moving on: another record for Ki
Here CNC(=O)[C@@H]1CCCCN(S(=O)(=O)c2ccccc2)CCC[C@H](C(=O)NO)[C@@H](CC(C)C)C(=O)N1 was tested on Interstitial collagenase (Homo sapiens), and its Ki came to < 1 nM

###

# test_target: Stromelysin-1 (Homo sapiens, UniProt P08254)
# Sequence (P08254 whole entry): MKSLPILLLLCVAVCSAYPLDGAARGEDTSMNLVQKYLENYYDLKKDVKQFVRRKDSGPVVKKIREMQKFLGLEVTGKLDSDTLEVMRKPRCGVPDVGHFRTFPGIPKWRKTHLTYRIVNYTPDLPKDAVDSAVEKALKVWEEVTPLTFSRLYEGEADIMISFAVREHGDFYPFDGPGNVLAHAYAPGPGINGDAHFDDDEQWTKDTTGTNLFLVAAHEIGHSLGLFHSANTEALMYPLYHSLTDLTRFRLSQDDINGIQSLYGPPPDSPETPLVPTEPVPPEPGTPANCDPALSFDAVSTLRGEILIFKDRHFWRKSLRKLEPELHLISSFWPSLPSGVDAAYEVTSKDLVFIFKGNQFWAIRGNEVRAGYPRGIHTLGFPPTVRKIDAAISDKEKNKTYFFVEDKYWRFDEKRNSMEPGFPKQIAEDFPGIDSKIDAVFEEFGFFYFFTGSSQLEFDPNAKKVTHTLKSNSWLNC
readout_label: Ki (nM)
Value expressed in nM; do not type the unit.

Here CNC(=O)[C@@H]1CCCCN(C(=O)OC(C)(C)C)CCC[C@H](C(=O)NO)[C@@H](CC(C)C)C(=O)N1 was tested on Stromelysin-1 (Homo sapiens, UniProt P08254), and its Ki came to 3

###

pKi: −log10 of the molar value.
Lab note: pKi readings collected with UniProtKB P14780 for the following compounds.

Solved cases below.
>>> df
                               entry_smiles  result
0  CNC(=O)[C@@H]1CCCCN(S(=O)(=O)C(F)(F)F)CCC[C@H](C(=O)NO)[C@@H](CC(C)C)C(=O)N1  > 9.00
1  CNC(=O)[C@@H]1CCCCN(S(=O)(=O)c2ccccc2)CCC[C@H](C(=O)NO)[C@@H](CC(C)C)C(=O)N1  > 9.00

Here CNC(=O)[C@@H]1CCCCN(S(=O)(=O)c2c(C)cc(C)cc2C)CCC[C@H](C(=O)NO)[C@@H](CC(C)C)C(=O)N1 was tested on UniProtKB P14780, and its pKi came to > 9.00
